- measurement parameters: 303.15 K; 101 kPa; Liquid
Where a name gives a salt, the structure may show the parent alone.

compound	viscosity (mPa·s)
CC/C=C\CCOC(C)=O [(Z)-3-hexenyl acetate]	0.763
CCCCOC(C)=O [butyl ethanoate]	0.628
CC/C=C\CCOC=O [(Z)-3-hexenyl formate]	0.527
CCO	0.968
CCC/C=C/COC(C)=O [(E)-2-hexenyl acetate]	0.77

---

- measurement parameters: 313.15 K; 101 kPa; Liquid
Structures can show the parent of a compound that is named as a salt. ± gives the expanded uncertainty stated by the source.

compound	viscosity
CC/C=C\CCOC=O [(Z)-3-hexenyl formate]	0.469 ± 0.017 mPa·s
CCCCOC(C)=O [butyl ethanoate]	0.546 ± 0.018 mPa·s
CCC/C=C/COC(C)=O [(E)-2-hexenyl acetate]	0.666 ± 0.021 mPa·s
CC/C=C\CCOC(C)=O [(Z)-3-hexenyl acetate]	0.66 ± 0.021 mPa·s
CCO [ethanol]	0.81 ± 0.026 mPa·s

---

- measurement parameters: 293.15 K; 101 kPa; Liquid
Where a name gives a salt, the structure may show the parent alone.
Entry flag: satisfied if viscosity reaches 0.9 mPa·s; not satisfied if it does not.

molecule	qualitative label
CCCCOC(C)=O [butyl ethanoate]	not satisfied
CCO [ethanol]	satisfied
CC/C=C\CCOC=O [(Z)-3-hexenyl formate]	not satisfied

---

The entries below are paired with their reported mass density.
- measurement parameters: 313.15 K; 101 kPa; Liquid
Where a name gives a salt, the structure may show the parent alone.
readout label: mass density (kg/m3)

molecule	output unit	obs value
CCC/C=C/COC(C)=O [(E)-2-hexenyl acetate]	kg/m3	884.35
CC/C=C\CCOC=O [(Z)-3-hexenyl formate]	kg/m3	903.17
CC/C=C\CCOC(C)=O [(Z)-3-hexenyl acetate]	kg/m3	886.19
CCO	kg/m3	771.98
CCCCOC(C)=O [butyl ethanoate]	kg/m3	861.84

---

- measurement parameters: 293.15 K; 101 kPa; Liquid
Where a name gives a salt, the structure may show the parent alone.
readout label: mass density (kg/m3)

compound	output unit	obs value
CCC/C=C/COC(C)=O [(E)-2-hexenyl acetate]	kg/m3	897.84
CC/C=C\CCOC(C)=O [(Z)-3-hexenyl acetate]	kg/m3	900.82
CC/C=C\CCOC=O [(Z)-3-hexenyl formate]	kg/m3	909.15
CCO	kg/m3	788.24
CCCCOC(C)=O [butyl ethanoate]	kg/m3	881.04

---

- measurement parameters: 303.15 K; 101 kPa; Liquid
Structures can show the parent of a compound that is named as a salt.
readout label: mass density (kg/m3)

compound	obs value
CC/C=C\CCOC=O [(Z)-3-hexenyl formate]	906.6
CCC/C=C/COC(C)=O [(E)-2-hexenyl acetate]	891.78
CCO	780.73
CC/C=C\CCOC(C)=O [(Z)-3-hexenyl acetate]	893.14
CCCCOC(C)=O [butyl ethanoate]	871.3
